Test: Acute toxicity (mortality, LD50) in mice
Assay type: in vivo
Conditions: in vivo; mouse, oral, 300 mg/kg; read-out: mortalité
measure.name: mortality (%)
Reply numerically in %, unit not repeated.

[
  {
    "substance.smiles": "CC(=C1C(=O)c2ccccc2C1=O)N(C)C",
    "mortality / %": 100
  },
  {
    "substance.smiles": "CC(NC(C)(C)C)=C1C(=O)c2ccccc2C1=O",
    "mortality / %": 100
  }
]

# input For "CNC(C)=C1C(=O)c2ccc([N+](=O)[O-])cc2C1=O" , write its mortality.
# output 100

====

Form field: response vs control in vivo at 20 mg/kg (one value per entry).
System: rat soumis à une surcharge hydrique
Experiment: Diuretic activity in rats given a water overload, oral
Type: in vivo
Details: rat, water overload, oral, 20 mg/kg; read-out: facteur multipliant l'excrétion urinaire du sodium
Give a bare numeral; the unit % is implied.

As a guide, the following entries are already answered.
[
  {
    "molecule": "CCNC(C)=C1C(=O)c2ccccc2C1=O [COR3789]",
    "response vs control in vivo at 20 mg/kg [%]": 310
  },
  {
    "molecule": "CCCCNC(C)=C1C(=O)c2ccccc2C1=O [COR4010]",
    "response vs control in vivo at 20 mg/kg [%]": 380
  },
  {
    "molecule": "CCC(NC)=C1C(=O)c2ccccc2C1=O [COR4003]",
    "response vs control in vivo at 20 mg/kg [%]": 720
  },
  {
    "molecule": "CC(NC1CC1)=C1C(=O)c2ccccc2C1=O [COR4014]",
    "response vs control in vivo at 20 mg/kg [%]": 240
  },
  {
    "molecule": "CC(NC(C)C)=C1C(=O)c2ccccc2C1=O [COR3792]",
    "response vs control in vivo at 20 mg/kg [%]": 590
  }
]

# input Consider the molecule CC(NC1CCCC1)=C1C(=O)c2ccccc2C1=O [COR4012] and give its recorded response vs control in vivo at 20 mg/kg.
# output 290

# input Please report response vs control in vivo at 20 mg/kg for the following molecule: COCCNC(C)=C1C(=O)c2ccccc2C1=O [COR4009]
# output 350

# input Answer with the recorded response vs control in vivo at 20 mg/kg for the molecule listed here: CNC(C)=C1C(=O)c2ccccc2C1=O [COR3760]
# output 290

# input // Input: CNC(C)=C1C(=O)c2ccc([N+](=O)[O-])cc2C1=O [COR4002] . Output its response vs control in vivo at 20 mg/kg only.
# output 260

====

System: rat Wistar soumis à une surcharge saline
Assay: Diuretic activity in selected Wistar rats given a saline overload (modified Wiebelhaus test)
Assay type: in vivo
Details: read-out: augmentation de l'excrétion urinaire du sodium
change in vivo at 20 mg/kg reference
// units = %; emit number, no label

Solved entries:
[
  {
    "compound": "CC(NCC(C)C)=C1C(=O)c2ccccc2C1=O [COR4008]",
    "assayed.target": "rat Wistar soumis à une surcharge saline",
    "change in vivo at 20 mg/kg, %": 24
  },
  {
    "compound": "CCNC(CC)=C1C(=O)c2ccccc2C1=O [COR4021]",
    "assayed.target": "rat Wistar soumis à une surcharge saline",
    "change in vivo at 20 mg/kg, %": 83
  },
  {
    "compound": "CCCC(NC)=C1C(=O)c2ccccc2C1=O [COR4017]",
    "assayed.target": "rat Wistar soumis à une surcharge saline",
    "change in vivo at 20 mg/kg, %": 31
  }
]

# ---- query compound ----
# input Answer with change in vivo at 20 mg/kg of CC(NC1CC1)=C1C(=O)c2ccccc2C1=O [COR4014] measured for rat Wistar soumis à une surcharge saline.
# output 29
